What CC50 at 18 h was measured for each of the following?
test: Cytotoxicity against mouse 4T1 cells assessed as reduction in cell viability in presence of 1 ug/ml colistin incubated for 18 hrs by MTT assay; assay type: cell-based
Give bare numbers, in µM.

1) O=C(NCCc1c[nH]c2ccccc12)Nc1ccc(Cl)c(Cl)c1; 105
2) O=C(NCCc1c[nH]c2ccccc12)Nc1cc(Br)cc(Br)c1; 64.2
3) O=C(NCCc1c[nH]c2ccccc12)Nc1cc(C(F)(F)F)cc(C(F)(F)F)c1; 61.8
4) O=C(NCCc1c[nH]c2ccc(Br)cc12)Nc1cc(Cl)c(Br)c(Cl)c1; 64.9

## Input // query CC50 at 18 h value for entry `CC(C)n1cc(-c2cccc(NC(=O)Nc3cc(Cl)c(Br)c(Cl)c3)c2)nc1N`
## Output 15.6

---

experiment: Cytotoxicity against mouse 4T1 cells assessed as reduction in cell viability incubated for 18 hrs by MTT assay; assay type: cell-based
Criterion: CC50 at 18 h strictly less than 90 µM. Met: Criterion met. Not met: Criterion not met.

Example entries and their recorded answers appear below.
1) O=C(NCCc1c[nH]c2ccccc12)Nc1cc(Br)cc(Br)c1; Criterion met
2) CC(C)n1cc(-c2cccc(NC(=O)Nc3cc(Cl)c(Br)c(Cl)c3)c2)nc1N; Criterion met
3) O=C(NCCc1c[nH]c2ccccc12)Nc1ccc(Cl)c(Cl)c1; Criterion not met
4) O=C(NCCc1c[nH]c2ccc(Br)cc12)Nc1cc(Cl)c(Br)c(Cl)c1; Criterion not met

Could you now consider this next molecule?
## Input Check if CC50 at 18 h falls below 90 µM for `O=C(NCCc1c[nH]c2ccccc12)Nc1cc(C(F)(F)F)cc(C(F)(F)F)c1` .
## Output Criterion met
